# Study system: T1, EGFRvIII-rabbit Fc fusion protein (human; rabbit, UniProt P00533 298-645)
# T1 construct: made in 293F cells; also called EGFRvIII-RbFc; EGFRvIII-Rab Ig Fc fusion protein; not shown: rabbit IgG Hinge-CH2-CH3 (721 bp fragment)
# Assay method text: ELISA, minilipofection supernatant titrated 1:2 on EGFRvIII-Rab Ig Fc fusion protein (1.5 ug/ml)
# Description: The secretion ELISA tests were performed as follows. […] The plates were washed five times with dH₂O. Recombinant antibodies were titrated 1:2 for 7 wells from the undiluted minilipofection supernatant. The plates were washed five times with dH₂O. A goat anti-human IgG Fc-specific HRP-conjugated antibody was added at a final concentration of 1 μg/mL for 1 hour at RT for the secretion plates and binding plates detected with 1 μg/ml Rb anti Hu Fc for 1 hour at room temperature. […]
Experimental endpoint: Titer, antigen binding (reciprocal dilution)
Report as a plain number; the unit reciprocal dilution is understood.

Challenge: Kindly indicate its recorded Titer, antigen binding. Item: SC-EGFRvIII-XG1-318 (antibody, human IgG1, V domains shown, XenoMax-derived; also called 141A10) VH: QVQLVESGGGVVQPGRSLRLSCVASGFTLSSYGMHWVRQAPGKGLEWVAVTSYDGSKKDYADSVKGRFTISRDNSKNTLYLQMNSLRAEDTAVYYCVSEGYCDSSSCYKYYYYGMDVWGQGTTVTVSS VL: DIVMTQSPLSLPVTPGEPASISCRSSQSLLYRNGNNYLDWYLQRPGQSPQLLIYLGSNRASGVPDRFSGSGSGTDFTLKISRVEAEDVGVYYCMQALQTPRTFGQGTKVEIK
Response given: 64
